FYI, the data here is from ChEMBL document CHEMBL1201862.

Test system: CCRF-CEM
RUN DESCRIPTION: NCI tumour cell line growth inhibition, 48 h
The source made the active and inactive calls. Rule as the data show it: active = GI50 up to about 1.1 µM and inactive = higher.
Possible outcomes: active, inactive

{"COMPOUND": "CC1=CC(=O)/C(=C/N2CCNC2=S)C(=O)O1", "TARGET": "CCRF-CEM", "CLASS NAME": "inactive"}
{"COMPOUND": "C=C(/C=C/C=C(\\CO)CCC=C(C)C)[C@H]1CCC2([C@H](CCCO)/C(=C(/C)C=O)CC[C@]2(C)O)[C@H]1O (stereo not given in full)", "TARGET": "CCRF-CEM", "CLASS NAME": "inactive"}
{"COMPOUND": "O=c1oc2cc(/N=C/c3ccc4c(c3)OCO4)ccc2c2ccccc12", "TARGET": "CCRF-CEM", "CLASS NAME": "inactive"}
{"COMPOUND": "CCC1(O)CC(OC2CC(N(C)C)C(OC3CC(O)C(OC4OC(C)C(=O)C=C4N)C(C)O3)C(C)O2)c2c(O)c3c(c(O)c2C1C(=O)OC)C(=O)c1cccc(O)c1C3=O (stereo not given)", "TARGET": "CCRF-CEM", "CLASS NAME": "active"}
{"COMPOUND": "O=C1C(C(c2ccccc2)N2CCOCC2)=C(O)C(c2ccccc2)N1c1ccccc1 (stereo not given)", "TARGET": "CCRF-CEM", "CLASS NAME": "inactive"}
{"COMPOUND": "COc1cc2c(cc1O)[C@H](C)C(c1ccc(OC)c(OC)c1)O2 (stereo not given in full)", "TARGET": "CCRF-CEM", "CLASS NAME": "inactive"}
{"COMPOUND": "OC(O)(C(F)(F)F)C(F)(F)F", "TARGET": "CCRF-CEM", "CLASS NAME": "inactive"}
{"COMPOUND": "COC1OC(CO)C(O)C(OC(C)=O)C1NC(=O)N(CCCl)N=O (stereo not given)", "TARGET": "CCRF-CEM", "CLASS NAME": "inactive"}
{"COMPOUND": "CCN(CC)C(=O)N[C@@H](Cc1ccccc1)C(=O)NC", "TARGET": "CCRF-CEM", "CLASS NAME": "inactive"}
{"COMPOUND": "COC(=O)C1CCC(=O)N1C(c1ccc(OC)cc1)c1ccc(OC)cc1 (stereo not given)", "TARGET": "CCRF-CEM", "CLASS NAME": "inactive"}
{"COMPOUND": "O=c1c(-c2ccccc2)c2oc(c1-c1ccccc1)CS(=O)(=O)CCC2", "TARGET": "CCRF-CEM", "CLASS NAME": "inactive"}
{"COMPOUND": "CC(C)(C)c1cc(C(=O)C2Cc3ccccc3C(=O)O2)cc(C(C)(C)C)c1O (stereo not given)", "TARGET": "CCRF-CEM", "CLASS NAME": "inactive"}
{"COMPOUND": "Cc1cc2c(c3oc(C(O)(CO)C4CO4)cc(=O)c13)C(=O)c1c(O)cccc1C2=O (stereo not given)", "TARGET": "CCRF-CEM", "CLASS NAME": "active"}
{"COMPOUND": "N#CCCCCC12C3C(=O)N(c4ccccc4)C(=O)C3ON1O[C@@H]1C(=O)N(c3ccccc3)C(=O)[C@@H]12 (stereo not given in full)", "TARGET": "CCRF-CEM", "CLASS NAME": "inactive"}
{"COMPOUND": "Cc1ccc(NC(=O)/C(=N/N(C)C)C(C2OC(=O)c3ccccc32)[N+](=O)[O-])cc1 (stereo not given)", "TARGET": "CCRF-CEM", "CLASS NAME": "inactive"}
{"COMPOUND": "CCNc1nc(N)c(C(=O)c2ccc(Cl)cc2)s1", "TARGET": "CCRF-CEM", "CLASS NAME": "inactive"}
{"COMPOUND": "Cc1ccc2c(c1)CC1(Cc3cc(C)ccc3C1=O)C2=O", "TARGET": "CCRF-CEM", "CLASS NAME": "inactive"}
{"COMPOUND": "O=C1/C(=C/c2cccnc2)C(n2cccc2)c2c(Br)sc(Br)c21 (stereo not given)", "TARGET": "CCRF-CEM", "CLASS NAME": "inactive"}
{"COMPOUND": "O=C1Cc2c(-c3cccs3)cc(-c3ccccc3)nc2-c2ccccc2N1", "TARGET": "CCRF-CEM", "CLASS NAME": "inactive"}
{"COMPOUND": "N#Cc1c(O)c(C=O)c(=O)n2c1[nH]c1ccccc12", "TARGET": "CCRF-CEM", "CLASS NAME": "inactive"}
{"COMPOUND": "O=C(NNC(=O)c1ccccc1O)c1cccc(Br)c1", "TARGET": "CCRF-CEM", "CLASS NAME": "active"}
{"COMPOUND": "O=c1c2cccnc2[nH]c2ccc3scnc3c12", "TARGET": "CCRF-CEM", "CLASS NAME": "inactive"}
{"COMPOUND": "Cc1nc2ccccc2c(=O)n1/N=C(\\N=N\\c1ccccc1)c1ccccc1Cl", "TARGET": "CCRF-CEM", "CLASS NAME": "inactive"}
{"COMPOUND": "O=C(Nc1ccccc1)OCCN=C1c2ccccc2C(Br)C(Br)c2ccccc21 (stereo not given)", "TARGET": "CCRF-CEM", "CLASS NAME": "inactive"}
{"COMPOUND": "COC1C(O)C(n2ncc3c(SC)nc(SC)nc32)OC1C(O)CO (stereo not given)", "TARGET": "CCRF-CEM", "CLASS NAME": "inactive"}
{"COMPOUND": "Cc1c(C(=O)O)n(C)c(=O)n(C)c1=O", "TARGET": "CCRF-CEM", "CLASS NAME": "inactive"}
{"COMPOUND": "COC(=O)[C@@H]1C[C@@]2(C3C=CN(C(=O)C(F)(F)F)C=C3)c3ccccc3N(C(=O)C(F)(F)F)[C@H]2N1C(=O)OC", "TARGET": "CCRF-CEM", "CLASS NAME": "inactive"}
{"COMPOUND": "O=C1Nc2ccc([N+](=O)[O-])cc2/C1=N/Nc1ccc([N+](=O)[O-])cc1", "TARGET": "CCRF-CEM", "CLASS NAME": "inactive"}
{"COMPOUND": "COc1ccc2[nH]c3c(C)c4ccncc4c(C)c3c2c1", "TARGET": "CCRF-CEM", "CLASS NAME": "active"}
{"COMPOUND": "O/N=C1\\CSc2ccccc2C1", "TARGET": "CCRF-CEM", "CLASS NAME": "inactive"}
{"COMPOUND": "O=C(Cc1ccccc1)N/N=C(/CCN1CCCC1)CC(c1ccccc1)c1c(O)c2ccccc2oc1=O (stereo not given)", "TARGET": "CCRF-CEM", "CLASS NAME": "inactive"}
{"COMPOUND": "CN(C)CCCOc1nc2c(c(=O)n(C)c(=O)n2C)n1C.SC1=NC=NC2=NC=NC12", "TARGET": "CCRF-CEM", "CLASS NAME": "inactive"}
{"COMPOUND": "O=[N+]([O-])c1cccc2nccc(NCC(O)CO)c12 (stereo not given)", "TARGET": "CCRF-CEM", "CLASS NAME": "inactive"}
{"COMPOUND": "CS(=O)(=O)O[C@H]1CN2C[C@@H](O)[C@@H](O)[C@H]2[C@H]1CO.[B]", "TARGET": "CCRF-CEM", "CLASS NAME": "active"}
{"COMPOUND": "O=C(c1nsc(Cl)c1Cl)N1CCCCC1", "TARGET": "CCRF-CEM", "CLASS NAME": "inactive"}
{"COMPOUND": "Cn1c(COC(=O)NC2CCCCC2)c(COC(=O)NC2CCCCC2)c2ccc3ccccc3c21", "TARGET": "CCRF-CEM", "CLASS NAME": "inactive"}
{"COMPOUND": "C/C=C/COc1cc(NC(=S)OC(C)C)ccc1Cl.C/C=C\\COc1cc(NC(=S)OC(C)C)ccc1Cl", "TARGET": "CCRF-CEM", "CLASS NAME": "inactive"}
{"COMPOUND": "COC(=O)[C@@H]1CN(C(C)=O)C(=O)N1", "TARGET": "CCRF-CEM", "CLASS NAME": "inactive"}
{"COMPOUND": "O=c1c2cc(S(=O)(=O)Nc3ccc(Cl)cc3Cl)ccc2ncn1NS(=O)(=O)c1cccc2ccccc12", "TARGET": "CCRF-CEM", "CLASS NAME": "inactive"}
{"COMPOUND": "CC(=O)O[C@H]1C[C@@H](OC(C)=O)[C@@](C)(O)[C@@H]2[C@@H](OC(C)=O)[C@@]3(O)[C@H](/C=C(/CCl)[C@H]4O[C@H]4[C@@H](OC(C)=O)[C@@]12C)OC(=O)[C@@H]3C", "TARGET": "CCRF-CEM", "CLASS NAME": "inactive"}
